# target_system: human TRPV3 receptors (Homo sapiens (Human), UniProt Q8NET8)
# Sequence (Q8NET8 whole entry): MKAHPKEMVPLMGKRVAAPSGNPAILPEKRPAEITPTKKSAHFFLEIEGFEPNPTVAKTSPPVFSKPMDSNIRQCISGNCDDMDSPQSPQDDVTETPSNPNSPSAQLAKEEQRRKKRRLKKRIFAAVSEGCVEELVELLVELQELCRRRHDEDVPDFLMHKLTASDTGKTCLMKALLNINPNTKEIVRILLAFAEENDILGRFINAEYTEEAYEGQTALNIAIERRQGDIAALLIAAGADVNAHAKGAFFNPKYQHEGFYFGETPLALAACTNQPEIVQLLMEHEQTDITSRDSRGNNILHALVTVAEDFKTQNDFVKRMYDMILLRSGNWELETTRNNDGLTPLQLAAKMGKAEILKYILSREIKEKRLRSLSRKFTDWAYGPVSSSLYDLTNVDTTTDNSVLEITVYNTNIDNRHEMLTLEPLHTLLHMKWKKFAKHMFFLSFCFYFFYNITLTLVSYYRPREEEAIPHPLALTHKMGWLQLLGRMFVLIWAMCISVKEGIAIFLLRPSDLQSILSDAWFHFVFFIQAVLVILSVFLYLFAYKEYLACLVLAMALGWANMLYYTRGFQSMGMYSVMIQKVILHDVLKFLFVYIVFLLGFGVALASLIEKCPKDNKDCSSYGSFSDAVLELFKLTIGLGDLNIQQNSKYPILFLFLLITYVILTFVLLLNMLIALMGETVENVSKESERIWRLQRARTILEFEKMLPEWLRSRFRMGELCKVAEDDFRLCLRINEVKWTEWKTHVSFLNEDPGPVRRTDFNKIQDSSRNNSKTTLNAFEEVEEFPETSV
# assay_procedure: Calcium flux assay (FLIPR TETRA), inhibition of the 2-APB response
# stated_conditions: recombinant HEK293 cells stably expressing TRPV3, Calcium-4 dye, 2-APB at its EC80
// values below are reported pIC50
pIC50 here is simply -log10 of the concentration when that concentration is written in mol/L.

CC(C)(CO)NCc1cccc(-c2cccc([Si](C)(C)C)c2)n1 5.24

Now let's try a different one.
May I ask what pIC50 has been recorded for CC(C)[C@H](CO)NCc1cccc(C#Cc2ccc(F)cc2F)n1 ? 6.28

---

// values below are reported pIC50
# target_system: UniProt:Q8NET8
# assay_procedure: Calcium flux assay (FLIPR TETRA), inhibition of the 2-APB response
# Format: cell-based
# stated_conditions: recombinant HEK293 cells stably expressing TRPV3, Calcium-4 dye, 2-APB at its EC80
pIC50 here is simply -log10 of the concentration when that concentration is written in mol/L.

Guide cases for pIC50, answers given:
CC(C)[C@H](CO)NCc1nc(N2CCc3cc(Cl)ccc3C2)ccc1F 6.30
CC(C)[C@H](CO)NCc1nc(-c2ccc3sccc3c2)ccc1F 6.64
CC(C)[C@H](CO)NCc1cccc(OC(C)(C)C)n1 5.39
CC(C)[C@H](CO)NCc1nc(-c2cccc3c2ccn3C)ccc1F 5.76
C[C@@H](O)[C@H](NCc1nc(-c2ccc(C(F)(F)F)nc2)ccc1F)C(=O)Nc1ccc2ccccc2c1 5.59
CC(C)[C@H](CO)NCc1nc(-c2cccc(C(F)(F)F)c2)ccc1F 5.95
CC(C)[C@H](CO)NCc1nc(N2CCC(C(F)(F)F)CC2)ccc1F 6.66

Now let's try a different one.
May I ask what pIC50 has been recorded for CC(C)[C@H](CO)NCc1cccc(-c2ccc(F)c(C(F)(F)F)c2)n1 ? 6.74

---

// values below are reported IC50
# target_system: human TRPV3 receptors (Homo sapiens (Human))
# assay_procedure: Calcium flux assay (FLIPR TETRA), inhibition of the 2-APB response
# stated_conditions: recombinant HEK293 cells stably expressing TRPV3, Calcium-4 dye, 2-APB at its EC80
Entry rule: numbers only, all in nM.

May I ask what IC50 has been recorded for CC(C)[C@H](CO)NCc1nc(C2=CCCCC2)ccc1F [Example 126] ? 740

May I ask what IC50 has been recorded for CC(C)[C@H](CO)NCc1nc(-c2ccc(C(F)(F)F)nc2)ccc1Cl [Example 110] ? 630

May I ask what IC50 has been recorded for CC(C)[C@H](CO)NCc1nc(C2=CCC(C(F)(F)F)CC2)ccc1F (stereo partly shown) [Example 223] ? 80

May I ask what IC50 has been recorded for CC(C)[C@H](CO)NCc1nc(-c2ccc3ccn(C)c3c2)ccc1F [Example 64] ? 480

May I ask what IC50 has been recorded for CCC[C@H](CO)NCc1nc(-c2ccc(C(F)(F)F)nc2)ccc1F [Example 87] ? 3100

---

# target_system: human TRPV3 receptors (Homo sapiens (Human), UniProt Q8NET8)
# assay_procedure: Calcium flux assay (FLIPR TETRA), inhibition of the 2-APB response
# stated_conditions: recombinant HEK293 cells stably expressing TRPV3, Calcium-4 dye, 2-APB at its EC80
readout_label: pIC50
pIC50 here is simply -log10 of the concentration when that concentration is written in mol/L.

Guide cases for pIC50, answers given:
compound	pIC50
CC(C)[C@H](CO)NCc1nc(-c2ccnc(C(F)(F)F)c2)ccc1F [Example 31]	5.66
CC(C)[C@H](CO)NCc1cccc(-c2ccc([Si](C)(C)C(C)(C)C)s2)n1 [Example 227]	5.74
CC(C)[C@H](CO)NCc1nc(-c2ccc(C(=O)N3CCCC3)cc2)ccc1F [Example 276]	4.96
CC(C)[C@H](CO)NCc1cccc(C#Cc2ccc(F)c(F)c2)n1 [Example 265]	6.72
CC(C)[C@H](CO)NCc1nc(-c2cnc(OCC(F)(F)F)nc2)ccc1F [Example 114]	5.63

May I ask what pIC50 has been recorded for Cc1cc(-c2ccc(F)c(CN[C@@H](CO)C(C)C)n2)cnc1N1CCOCC1 [Example 253] ? 6.15

May I ask what pIC50 has been recorded for CC(C)[C@H](CO)NCc1nc(C2CCC3(CC2)OCCO3)ccc1F [Example 214] ? 5.08

May I ask what pIC50 has been recorded for CC(C)[C@H](CO)NCc1nc(-c2cccc(C(=O)N(C)Cc3ccccc3)c2)ccc1F [Example 58] ? 5.83

May I ask what pIC50 has been recorded for CC[C@@H](NCc1nc(-c2ccc(C(F)(F)F)nc2)ccc1F)C(C)O (some centres unmarked) [Example 115] ? 6.29

May I ask what pIC50 has been recorded for CC(C)[C@H](CO)NCc1nc(-c2cc3ccccc3n2C(=O)OC(C)(C)C)ccc1F [Example 273] ? 6.92

May I ask what pIC50 has been recorded for CC(C)Oc1cccc(-c2ccc(F)c(CN[C@@H](CO)C(C)C)n2)c1 [Example 24] ? 6.12

May I ask what pIC50 has been recorded for CC(C)[C@H](CO)NCc1nc(-c2cncc(C(F)(F)F)c2)ccc1F [Example 292] ? 6.55

May I ask what pIC50 has been recorded for CC(C)[C@@H](CO)NCc1cccc(-c2ccc(C(F)(F)F)cc2)n1 [Example 3] ? 5.03

May I ask what pIC50 has been recorded for CC(C)[C@H](CO)NCc1nc(-c2cc3ccccc3n2C)ccc1F [Example 249] ? 6.46

May I ask what pIC50 has been recorded for CC(C)[C@H](CO)NCc1nc(-c2ccc3occc3c2)ccc1F [Example 256] ? 6.38

May I ask what pIC50 has been recorded for CC(C)[C@H](CO)NCc1nc(-c2ccc(F)c(Cl)c2)ccc1F [Example 294] ? 6.92

May I ask what pIC50 has been recorded for CC(C)[C@@H](NCc1nc(-c2ccc(C(F)(F)F)cc2)ccc1F)C(C)O (some centres unmarked) [Example 107] ? 6.15

May I ask what pIC50 has been recorded for CC(C)[C@H](CO)NCc1nc(-c2ccc(F)cc2)ccc1F [Example 27] ? 6.49

May I ask what pIC50 has been recorded for OCC1(NCc2ccnc(-c3ccc(C(F)(F)F)cc3)n2)CCCCC1 [Example 134] ? 4.96

May I ask what pIC50 has been recorded for C[C@H](CO)NCc1ccnc(-c2ccc(C(F)(F)F)cc2)n1 [Example 137] ? 5.11

May I ask what pIC50 has been recorded for OCC1(CNCc2ccnc(-c3ccc(C(F)(F)F)cc3)n2)CCCCC1 [Example 159] ? 4.75

May I ask what pIC50 has been recorded for CC(C)[C@H](CO)NCc1nc(C#Cc2ccc(F)cc2)ccc1F [Example 238] ? 6.54

---

# target_system: human TRPV3 receptors (Homo sapiens (Human), UniProt Q8NET8)
# assay_procedure: Calcium flux assay (FLIPR TETRA), inhibition of the 2-APB response
# stated_conditions: recombinant HEK293 cells stably expressing TRPV3, Calcium-4 dye, 2-APB at its EC80
Binary call on IC50 with cut-off 500 nM: strictly below means y, and equality or higher means n.

IC50 under 500 nM? Item: CC(C)[C@H](CO)NCc1nc(N2CCC(F)(F)CC2)ccc1F n

---

# target_system: human TRPV3 receptors (Homo sapiens (Human), UniProt Q8NET8)
# assay_procedure: Calcium flux assay (FLIPR TETRA), inhibition of the 2-APB response
# stated_conditions: recombinant HEK293 cells stably expressing TRPV3, Calcium-4 dye, 2-APB at its EC80
// values below are reported pIC50
pIC50 here is simply -log10 of the concentration when that concentration is written in mol/L.

Guide cases for pIC50, answers given:
molecule	target_system	recorded_result
CC(C)[C@H](CO)NCc1nc(N2CCC(F)(F)CC2)ncc1F [Example 231]	human TRPV3 receptors (Homo sapiens (Human), UniProt Q8NET8)	5.82
CC(C)Oc1ccc(F)c(-c2ccc(F)c(CN[C@@H](CO)C(C)C)n2)c1 [Example 23]	human TRPV3 receptors (Homo sapiens (Human), UniProt Q8NET8)	6.15

May I ask what pIC50 has been recorded for CC(C)[C@H](CO)NCc1nc(-c2ccccc2F)ccc1F [Example 13] ? 5.95

May I ask what pIC50 has been recorded for CC(C)[C@H](CO)NCc1ccnc(-c2ccc(S(=O)(=O)C(F)(F)F)cc2)n1 [Example 207] ? 6.17

May I ask what pIC50 has been recorded for CC(C)[C@H](CO)NCc1nc(C2CCCCCC2)ccc1F [Example 206] ? 5.91

---

// values below are reported IC50
# target_system: human TRPV3 receptors (Homo sapiens (Human), UniProt Q8NET8)
# assay_procedure: Calcium flux assay (FLIPR TETRA), inhibition of the 2-APB response
# stated_conditions: recombinant HEK293 cells stably expressing TRPV3, Calcium-4 dye, 2-APB at its EC80
Entry rule: numbers only, all in nM.

CC(C)[C@H](CO)NCc1nc(-c2cnc(C(F)(F)F)nc2)ccc1F 2650
CC(=O)c1cccc(-c2ccc(F)c(CN[C@@H](CO)C(C)C)n2)c1F 1190
CCCN(CCC)C(=O)c1ccc(-c2ccc(F)c(CN[C@@H](CO)C(C)C)n2)cc1 650
CC(C)[C@H](CO)NCc1nc(-c2cc(Cl)cc(Cl)c2)ccc1F 3300
OC[C@H](NCc1nc(-c2ccc(C(F)(F)F)nc2)ccc1F)C1CCCCC1 570

May I ask what IC50 has been recorded for CC(C)[C@H](CO)NCc1nc(-c2ccc(Cl)nc2)ccc1F ? 2850
